protocolDescription: in vitro
measurementContext: PAMPA, pH 7.4, PAMPA Pe_avg
Positions of bridges follow the written chain, without caps; N, C: chain ends. Non-standard residues stand in square brackets, D forms with d. Residues, ends and D or L forms follow the SMILES beside them. NMeC = CN[C@@H](CS)C(=O)O; NMeA = CN[C@@H](C)C(=O)O; dAbu = CC[C@@H](N)C(=O)O; dNMeA = CN[C@H](C)C(=O)O; Abu = CC[C@H](N)C(=O)O; NEtG = CCNCC(=O)O

{"molecule": "CCOC(=O)[C@@H]1CSCC(=O)N[C@H](CC)C(=O)N(C)[C@@H](C)C(=O)N[C@@H](CC(C)C)C(=O)N2CCC[C@H]2C(=O)N(CC)CC(=O)N[C@H](CC(C)C)C(=O)N(C)[C@@H](C)C(=O)N[C@@H](CC(C)C)C(=O)N1C [JF206_ALD_DLDL_Ethyl] ({CH2CO}-[dAbu][NMeA]LP[NEtG][dL][NMeA]L[NMeC]-OEt; thioether N-9)", "unitSpec": "×10⁻⁶ cm/s", "Papp at 10 µM": 0.027}
{"molecule": "CCOC(=O)[C@@H]1CSCC(=O)N[C@@H](CC)C(=O)N(C)[C@@H](C)C(=O)N[C@@H](CC(C)C)C(=O)N2CCC[C@@H]2C(=O)N(CC)CC(=O)N[C@H](CC(C)C)C(=O)N(C)[C@@H](C)C(=O)N[C@@H](CC(C)C)C(=O)N1C [JF206_ADL_LLDL_Ethyl] ({CH2CO}-[Abu][NMeA]L[dP][NEtG][dL][NMeA]L[NMeC]-OEt; thioether N-9)", "unitSpec": "×10⁻⁶ cm/s", "Papp at 10 µM": 0.011}
{"molecule": "CCOC(=O)[C@@H]1CSCC(=O)N[C@@H](CC)C(=O)N(C)[C@@H](C)C(=O)N[C@H](CC(C)C)C(=O)N2CCC[C@H]2C(=O)N(CC)CC(=O)N[C@@H](CC(C)C)C(=O)N(C)[C@H](C)C(=O)N[C@@H](CC(C)C)C(=O)N1C [JF206_ALL_LDLD_Ethyl] ({CH2CO}-[Abu][NMeA][dL]P[NEtG]L[dNMeA]L[NMeC]-OEt; thioether N-9)", "unitSpec": "×10⁻⁶ cm/s", "Papp at 10 µM": 0.012}

----------
protocolDescription: in vitro
measurementContext: dog, pH 7.4
Positions of bridges follow the written chain, without caps; N, C: chain ends. Non-standard residues stand in square brackets, D forms with d. Residues, ends and D or L forms follow the SMILES beside them. NMeC = CN[C@@H](CS)C(=O)O; NMeA = CN[C@@H](C)C(=O)O; dAbu = CC[C@@H](N)C(=O)O; dNMeA = CN[C@H](C)C(=O)O; Abu = CC[C@H](N)C(=O)O; Nleu = CC(C)CNCC(=O)O
parameter: Papp A→B (nm/s)

{"compound": "CCOC(=O)[C@@H]1CSCC(=O)N[C@@H](CC)C(=O)N(C)[C@@H](C)C(=O)N[C@@H](CC(C)C)C(=O)N(C)[C@H](C)C(=O)N(CC(C)C)CC(=O)N[C@H](CC(C)C)C(=O)N(C)[C@H](C)C(=O)N[C@@H](CC(C)C)C(=O)N1C [A1-1L] ({CH2CO}-[Abu][NMeA]L[dNMeA][Nleu][dL][dNMeA]L[NMeC]-OEt; thioether N-9)", "parameter": "Papp A→B", "measuredValue": 9.3}
{"compound": "CCOC(=O)[C@@H]1CSCC(=O)N[C@H](CC)C(=O)N(C)[C@@H](C)C(=O)N[C@@H](CC(C)C)C(=O)N(C)[C@H](C)C(=O)N(CC(C)C)CC(=O)N[C@@H](CC(C)C)C(=O)N(C)[C@H](C)C(=O)N[C@@H](CC(C)C)C(=O)N1C [A1-6L] ({CH2CO}-[dAbu][NMeA]L[dNMeA][Nleu]L[dNMeA]L[NMeC]-OEt; thioether N-9)", "parameter": "Papp A→B", "measuredValue": 8.6}

----------
protocolDescription: in vitro
measurementContext: dog, MDCK, pH 7.4
Positions of bridges follow the written chain, without caps; N, C: chain ends. Non-standard residues stand in square brackets, D forms with d. Residues, ends and D or L forms follow the SMILES beside them. NMeAbu = CC[C@H](NC)C(=O)O; NMeC = CN[C@@H](CS)C(=O)O; NMeA = CN[C@@H](C)C(=O)O; Abu = CC[C@H](N)C(=O)O; NPrGly = CCCNCC(=O)O
parameter: Papp A→B at 3 h, 10 µM (×10⁻⁶ cm/s)

{"compound": "CCCN1CC(=O)N[C@@H](CC)C(=O)N(C)[C@@H](C)C(=O)N[C@@H](CC(C)C)C(=O)N(C)[C@H](C(=O)OCC)CSCC(=O)N[C@@H](CC(C)C)C(=O)N(C)[C@@H](C)C(=O)N[C@@H](CC(C)C)C(=O)N2CCC[C@@H]2C1=O [LA04] ({CH2CO}-L[NMeA]L[dP][NPrGly][Abu][NMeA]L[NMeC]-OEt; thioether N-9)", "parameter": "Papp A→B at 3 h, 10 µM", "measuredValue": 4}
{"compound": "CCOC(=O)[C@@H]1CSCC(=O)N[C@@H](CC(C)C)C(=O)N(C)[C@@H](C)C(=O)N[C@@H](CC(C)C)C(=O)N2CCC[C@@H]2C(=O)N(C)[C@@H](CC)C(=O)N[C@@H](CC)C(=O)N(C)[C@@H](C)C(=O)N[C@@H](CC(C)C)C(=O)N1C [LC02] ({CH2CO}-L[NMeA]L[dP][NMeAbu][Abu][NMeA]L[NMeC]-OEt; thioether N-9)", "parameter": "Papp A→B at 3 h, 10 µM", "measuredValue": 7.4}

----------
protocolDescription: PAMPA, compounds measured in multiplex as mixtures (primary protocol)
measurementContext: PAMPA, pH 7.4, PAMPA Papp, internal standard, 10 µM, StereoB expt. group BLL

{"compound": "NC(=O)N1c2ccccc2C=Cc2ccccc21 [Carbamazepine]", "unitSpec": "×10⁻⁶ cm/s", "Papp at 10 µM": 5.8}

----------
measurementContext: PAMPA, 10 µM, pH 7.4
Positions of bridges follow the written chain, without caps; N, C: chain ends. Non-standard residues stand in square brackets, D forms with d. Residues, ends and D or L forms follow the SMILES beside them. Cha = N[C@@H](CC1CCCCC1)C(=O)O; NMeC = CN[C@@H](CS)C(=O)O; NMeA = CN[C@@H](C)C(=O)O; Nva = CCC[C@H](N)C(=O)O; NEtG = CCNCC(=O)O
parameter: %R_avg (%)

{"molecule": "CCC[C@@H]1NC(=O)[C@H](C)N(C)C(=O)[C@H](CC(C)C)NC(=O)CSC[C@@H](C(=O)OCC)N(C)C(=O)[C@H](CC(C)C)NC(=O)[C@H](C)N(C)C(=O)[C@H](CC(C)C)NC(=O)CN(CC)C(=O)[C@H]2CCCN2C1=O [LA05] ({CH2CO}-L[NMeA][Nva][dP][NEtG]L[NMeA]L[NMeC]-OEt; thioether N-9)", "parameter": "%R_avg", "unitSpec": "%", "measuredValue": 12.8}
{"molecule": "CCC[C@@H]1NC(=O)CN(CC)C(=O)[C@H](CC(C)C)NC(=O)CSC[C@@H](C(=O)OCC)N(C)C(=O)[C@H](CC(C)C)NC(=O)[C@H](C)N(C)C(=O)[C@H](CC2CCCCC2)NC(=O)[C@H](C)N(C)C(=O)[C@H]2CCCN2C1=O [LB09] ({CH2CO}-L[NEtG][Nva][dP][NMeA][Cha][NMeA]L[NMeC]-OEt; thioether N-9)", "parameter": "%R_avg", "unitSpec": "%", "measuredValue": 6.4}

----------
protocolDescription: PAMPA, individually resynthesized pure compounds (primary protocol);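 also: artificial membrane of 1% soy lecithin in dodecane on a filter plate, donor and acceptor buffer PBS pH 7.4 with 5% DMSO, incubated overnight at room temperature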
measurementContext: Papp
Positions of bridges follow the written chain, without caps; N, C: chain ends. Non-standard residues stand in square brackets, D forms with d. Residues, ends and D or L forms follow the SMILES beside them. NMeC = CN[C@@H](CS)C(=O)O; NMeA = CN[C@@H](C)C(=O)O; dAbu = CC[C@@H](N)C(=O)O; dNMeA = CN[C@H](C)C(=O)O; Nleu = CC(C)CNCC(=O)O
parameter: Papp

{"molecule": "CCOC(=O)[C@@H]1CSCC(=O)N[C@H](CC)C(=O)N(C)[C@@H](C)C(=O)N[C@@H](CC(C)C)C(=O)N(C)[C@H](C)C(=O)N(CC(C)C)CC(=O)N[C@H](CC(C)C)C(=O)N(C)[C@H](C)C(=O)N[C@@H](CC(C)C)C(=O)N1C [A1] ({CH2CO}-[dAbu][NMeA]L[dNMeA][Nleu][dL][dNMeA]L[NMeC]-OEt; thioether N-9)", "measuredValue": "~10 ×10⁻⁶ cm/s"}
